System: U87MG cells
Assay: Cellular assay, inhibition of 2-HG production in U87MG cells
Format: cell-based
Details: Homo sapiens, U-87 MG, 48 h
OBSERVED PROPERTY: IC50

{"MOLECULE": "N#Cc1ccnc(N2C(=O)CC[C@H]2C(=O)N(c2cccc(F)c2)[C@H](C(=O)NC2CC(F)(F)C2)c2c(Cl)cccc2Cl)c1 (single isomer, unassigned)", "RESULT": "< 100 nM"}
{"MOLECULE": "O=C(NC1CCC(F)(F)CC1)[C@H](c1ccccc1Cl)N(C(=O)[C@@H]1CCC(=O)N1c1cscn1)c1cccc(F)c1", "RESULT": "< 100 nM"}
{"MOLECULE": "O=C(NC1CC(F)(F)C1)[C@H](c1ccccc1Cl)N(C(=O)[C@@H]1CCC(=O)N1c1cscn1)c1cccc(F)c1", "RESULT": "< 100 nM"}
{"MOLECULE": "O=C(NC1CCCCC1)[C@H](c1ccccc1Cl)N(C(=O)[C@@H]1CCC(=O)N1c1ncccn1)c1cccc(F)c1", "RESULT": "< 100 nM"}
{"MOLECULE": "O=C(NC1CC(F)(F)C1)[C@H](c1ccccc1Cl)N(C(=O)[C@@H]1CCC(=O)N1c1nccc2ccccc12)c1cccc(F)c1", "RESULT": "500 to 1000 nM"}
{"MOLECULE": "O=C(NC1CC(F)(F)C1)[C@H](c1ccccc1Cl)N(C(=O)[C@@H]1CCC(=O)N1c1ccc(F)cn1)c1cccc(F)c1", "RESULT": "< 100 nM"}
{"MOLECULE": "O=C(NC1CCC(F)(F)CC1)[C@H](c1ccccc1Cl)N(C(=O)[C@@H]1CCC(=O)N1c1cnccn1)c1cccc(F)c1", "RESULT": "< 100 nM"}
{"MOLECULE": "N#Cc1ccnc(N2C(=O)OCC[C@H]2C(=O)N(c2cc(F)cc(F)c2)[C@H](C(=O)NC2CCC(F)(F)CC2)c2ccccc2Cl)n1", "RESULT": "< 100 nM"}
{"MOLECULE": "N#Cc1cc(F)cc(N(C(=O)[C@@H]2CCC(=O)N2c2cc(C#N)ccn2)[C@H](C(=O)NC2CC(F)(F)C2)c2ccccc2Cl)c1", "RESULT": "< 100 nM"}
{"MOLECULE": "N#Cc1ccnc(N2C(=O)OCC[C@H]2C(=O)N(c2cc(F)cc(F)c2)[C@H](C(=O)NC2CC(F)(F)C2)c2ccccc2Cl)c1", "RESULT": "< 100 nM"}
{"MOLECULE": "CC(C)(O)c1cc(F)cc(N(C(=O)[C@@H]2CCOC(=O)N2c2cc(C#N)ccn2)[C@H](C(=O)NC2CC(F)(F)C2)c2ccccc2Cl)c1", "RESULT": "< 100 nM"}
{"MOLECULE": "N#Cc1ccnc(N2C(=O)[C@@H](O)C[C@H]2C(=O)N(c2cccc(F)c2)[C@H](C(=O)NC2CC(F)(F)C2)c2ccccc2Cl)c1", "RESULT": "< 100 nM"}
{"MOLECULE": "N#Cc1ccnc(N2C(=O)CN(CCO)C[C@H]2C(=O)N(c2cc(F)cc(F)c2)[C@H](C(=O)NC2CC(F)(F)C2)c2ccccc2Cl)c1", "RESULT": "< 100 nM"}
{"MOLECULE": "O=C(NC1CC(F)(F)C1)C(c1ccccc1Cl)N(C(=O)C1CCC(=O)N1c1cnccn1)c1cccc(F)c1 (stereo not shown)", "RESULT": "< 100 nM"}
{"MOLECULE": "N#Cc1cccc(N(C(=O)[C@@H]2CCC(=O)N2c2nccc(C#N)n2)[C@H](C(=O)NC2CC(F)(F)C2)c2ccccc2Cl)c1", "RESULT": "< 100 nM"}
{"MOLECULE": "O=C(NC1CC(F)C1)[C@H](c1ccccc1Cl)N(C(=O)[C@@H]1CCC(=O)N1c1ncccn1)c1cccc(F)c1 (stereo partly shown)", "RESULT": "100 to 500 nM"}
{"MOLECULE": "O=C(NC1CCC(F)(F)CC1)[C@H](c1ccccc1Cl)N(C(=O)[C@@H]1CCC(=O)N1c1ncccn1)c1cccc(F)c1", "RESULT": "< 100 nM"}
{"MOLECULE": "CC(C)(C)c1cccc(N(C(=O)[C@@H]2CCC(=O)N2c2nccc(C#N)n2)[C@H](C(=O)NC2CC(F)(F)C2)c2ccccc2Cl)c1", "RESULT": "< 100 nM"}
{"MOLECULE": "O=C(NC1CC(F)(F)C1)[C@H](c1ccccc1Cl)N(C(=O)[C@@H]1CCC(=O)N1c1nccs1)c1cccc(F)c1", "RESULT": "100 to 500 nM"}
{"MOLECULE": "N#Cc1ccnc(N2C(=O)CC[C@H]2C(=O)N(c2cccc(F)c2F)[C@H](C(=O)NC2CC(F)(F)C2)c2ccccc2Cl)c1", "RESULT": "< 100 nM"}
{"MOLECULE": "N#Cc1ccnc(N2C(=O)CC[C@H]2C(=O)N(c2cc(F)cc(F)c2)[C@H](C(=O)NC2CC(F)(F)C2)c2ccccc2Cl)n1", "RESULT": "< 100 nM"}
{"MOLECULE": "N#Cc1ccnc(N2C(=O)[C@@H](O)C[C@H]2C(=O)N(c2cccc(F)c2)[C@H](C(=O)NC2CC(F)(F)C2)c2ccccc2Cl)n1", "RESULT": "100 to 500 nM"}
{"MOLECULE": "CS(=O)(=O)c1cccc(N(C(=O)[C@@H]2CCC(=O)N2c2cc(C#N)ccn2)C(C(=O)NC2CC(F)(F)C2)c2ccccc2Cl)c1 (stereo partly shown)", "RESULT": "< 100 nM"}
{"MOLECULE": "C[S@+]([O-])c1cc(F)cc(N(C(=O)[C@@H]2CCC(=O)N2c2cc(C#N)ccn2)[C@H](C(=O)NC2CC(F)(F)C2)c2ccccc2Cl)c1", "RESULT": "< 100 nM"}
{"MOLECULE": "N#Cc1ccnc(N2C(=O)OCC[C@H]2C(=O)N(c2cncc(F)c2)[C@H](C(=O)NC2CC(F)(F)C2)c2ccccc2Cl)c1", "RESULT": "< 100 nM"}

* * *

System: U87MG cells
Experiment: Cellular assay, inhibition of 2-HG production in U87MG cells
Assay type: cell-based
Settings: Homo sapiens, U-87 MG, 48 h
Description: Cells (HT1080 or U87MG) are grown in T125 flasks in DMEM containing 10% FBS, 1× penicillin/streptomycin and 500 ug/mL G418 (present in U87MG cells only). They are harvested by trypsin and seeded into 96 well white bottom plates at a density of 5000 cell/well in 100 ul/well in DMEM with 10% FBS. […] Cells are incubated overnight at 37° C. in 5% CO2. […] The plate is then read for luminescence with an integration time of 500 ms.
OBSERVED PROPERTY: IC50

{"COMPOUND": "N#Cc1ccnc(N2C(=O)N(CCO)C[C@H]2C(=O)N(c2cccc(F)c2)C(C(=O)NC2CC(F)(F)C2)c2ccccc2Cl)c1 (stereo partly drawn)", "RESULT": "< 100 nM"}
{"COMPOUND": "N#Cc1ccnc(N2C(=O)OC[C@H]2C(=O)N(c2cccc(F)c2)[C@H](C(=O)NC2CC(F)(F)C2)c2ccccc2Cl)c1", "RESULT": "< 100 nM"}
{"COMPOUND": "N#Cc1cc(F)cc(N(C(=O)[C@@H]2C[C@@H](O)C(=O)N2c2cc(C#N)ccn2)C(C(=O)NC2CC(F)(F)C2)c2ccccc2Cl)c1 (stereo partly drawn)", "RESULT": "< 100 nM"}
{"COMPOUND": "N#Cc1cccnc1N1C(=O)CC[C@H]1C(=O)N(c1cccc(F)c1)[C@H](C(=O)NC1CC(F)(F)C1)c1ccccc1Cl", "RESULT": "< 100 nM"}
{"COMPOUND": "N#Cc1ccc(N2C(=O)CC[C@H]2C(=O)N(c2cccc(F)c2)[C@H](C(=O)NC2CC(F)(F)C2)c2ccccc2Cl)nc1", "RESULT": "100 to 500 nM"}
{"COMPOUND": "N#Cc1ccnc(N2C(=O)CC[C@H]2C(=O)N(c2cccc(F)c2)[C@H](C(=O)NC2CC(F)(F)C2)c2ccccc2Cl)c1", "RESULT": "< 100 nM"}

* * *

Below, each entry is listed alongside its reported pIC50.
System: U87MG cells
Experiment: Cellular assay, inhibition of 2-HG production in U87MG cells
Format: cell-based
Conditions: Homo sapiens, U-87 MG, 48 h
pIC50: −log10 of the molar value.

{"COMPOUND": "CC(C)(O)c1cc(F)cc(N(C(=O)[C@@H]2CCC(=O)N2c2cc(C#N)ccn2)[C@H](C(=O)NC2CC(F)(F)C2)c2ccccc2Cl)c1 [Compound 150]", "pIC50": "> 7.00"}
{"COMPOUND": "N#Cc1ccnc(N2C(=O)CC[C@H]2C(=O)N(c2cncc(F)c2)[C@H](C(=O)NC2CC(F)(F)C2)c2ccccc2Cl)c1 [Compound 176]", "pIC50": "> 7.00"}
{"COMPOUND": "CC(C)(O)c1cccc(N(C(=O)[C@@H]2CCC(=O)N2c2cc(C#N)ccn2)[C@H](C(=O)NC2CC(F)(F)C2)c2ccccc2Cl)c1 [Compound 179]", "pIC50": "> 7.00"}
{"COMPOUND": "N#Cc1ccnc(N2C(=O)CC[C@H]2C(=O)N(c2cc(F)cc(F)c2)[C@H](C(=O)NC2CC(F)(F)C2)c2ccccc2)c1 [Compound 210]", "pIC50": "> 7.00"}
{"COMPOUND": "N#Cc1cncc(N(C(=O)[C@@H]2CCC(=O)N2c2cc(C#N)ccn2)[C@H](C(=O)NC2CC(F)(F)C2)c2ccccc2)c1 [Compound 212]", "pIC50": "> 7.00"}
{"COMPOUND": "N#Cc1ccnc(N2C(=O)CN(C3CC3)C[C@H]2C(=O)N(c2cc(F)cc(F)c2)[C@H](C(=O)NC2CC(F)(F)C2)c2ccccc2Cl)c1 [Compound 106]", "pIC50": "> 7.00"}
{"COMPOUND": "O=C(NC1CC(F)(F)C1)C(c1ccccc1Cl)N(C(=O)[C@@H]1CCC(=O)N1c1ccccn1)c1cccc(F)c1 (stereo partly drawn) [Compound 5]", "pIC50": "6.30 to 7.00"}
{"COMPOUND": "N#Cc1cccc(N(C(=O)[C@@H]2CCC(=O)N2c2cc(C#N)ccn2)[C@H](C(=O)NC2CC(F)(F)C2)c2ccccc2Cl)c1 [Compound 128]", "pIC50": "> 7.00"}
{"COMPOUND": "N#Cc1ccnc(N2C(=O)CC[C@H]2C(=O)N(c2ccc3[nH]ccc3c2)[C@H](C(=O)NC2CC(F)(F)C2)c2ccccc2Cl)c1 [Compound 206]", "pIC50": "> 7.00"}
{"COMPOUND": "N#Cc1ccnc(N2C(=O)CC[C@H]2C(=O)N(c2cc(F)cc(F)c2)[C@H](C(=O)NC2CC(F)(F)C2)c2cc(Cl)ccc2Cl)c1 [Compound 201]", "pIC50": "> 7.00"}
{"COMPOUND": "N#Cc1ccnc(N2C(=O)CCC[C@H]2C(=O)N(c2cccc(F)c2)[C@H](C(=O)NC2CC(F)(F)C2)c2ccccc2Cl)c1 [Compound 55]", "pIC50": "> 7.00"}
{"COMPOUND": "N#Cc1ccnc(N2C(=O)[C@H](O)C[C@H]2C(=O)N(c2cccc(F)c2)[C@H](C(=O)NC2CC(F)(F)C2)c2ccccc2Cl)n1 [Compound 120]", "pIC50": "6.30 to 7.00"}
{"COMPOUND": "N#Cc1ccnc(N2C(=O)CC[C@H]2C(=O)N(c2cccc(F)c2)[C@H](C(=O)NC2CCC(F)(F)CC2)c2ccccc2Cl)c1F [Compound 83]", "pIC50": "> 7.00"}
{"COMPOUND": "N#Cc1ccnc(N2C(=O)OCC[C@H]2C(=O)N(c2cccc(F)c2)C(C(=O)NC2CC(F)(F)C2)c2ccccc2Cl)c1 (stereo partly drawn) [Compound 90]", "pIC50": "> 7.00"}
{"COMPOUND": "CC(C)(O)c1cc(F)cc(N(C(=O)[C@@H]2COC(=O)N2c2cc(C#N)ccn2)C(C(=O)NC2CC(F)(F)C2)c2ccccc2Cl)c1 (stereo partly drawn) [Compound 145]", "pIC50": "> 7.00"}
{"COMPOUND": "N#Cc1ccnc(N2C(=O)CC[C@H]2C(=O)N(c2cccc(OC(F)F)c2)[C@H](C(=O)NC2CC(F)(F)C2)c2ccccc2Cl)c1 (single isomer, unassigned) [Compound 181]", "pIC50": "> 7.00"}
{"COMPOUND": "CS(=O)(=O)c1cc(F)cc(N(C(=O)[C@@H]2CCC(=O)N2c2nccc(C#N)n2)[C@H](C(=O)NC2CCC(F)(F)CC2)c2ccccc2Cl)c1 [Compound 168]", "pIC50": "> 7.00"}
{"COMPOUND": "N#Cc1cccc(N(C(=O)[C@@H]2CCC(=O)N2c2nccc(C#N)n2)[C@H](C(=O)NC2CCC(F)(F)CC2)c2ccccc2Cl)c1 [Compound 178]", "pIC50": "> 7.00"}
{"COMPOUND": "N#Cc1ccnc(N2C(=O)[C@H](O)C[C@H]2C(=O)N(c2cc(F)cc(F)c2)[C@@H](C(=O)NC2CCC(F)(F)CC2)c2ccccc2Cl)n1 [Compound 126]", "pIC50": "6.30 to 7.00"}
{"COMPOUND": "N#Cc1ccnc(N2C(=O)CC[C@H]2C(=O)N(c2cccc(F)c2)[C@H](C(=O)NC2CC(F)(F)C2)c2ccccc2)c1 [Compound 138]", "pIC50": "> 7.00"}
{"COMPOUND": "Cc1ccc(N2C(=O)CC[C@H]2C(=O)N(c2cccc(F)c2)[C@H](C(=O)NC2CC(F)(F)C2)c2ccccc2Cl)nc1 [Compound 21]", "pIC50": "6.30 to 7.00"}
{"COMPOUND": "N#Cc1ccnc(N2C(=O)CC[C@H]2C(=O)N(c2cc(F)cc(C3CC3)c2)[C@H](C(=O)NC2CCC(F)(F)CC2)c2ccccc2Cl)c1 [Compound 202]", "pIC50": "> 7.00"}
{"COMPOUND": "CS(=O)(=O)c1cc(F)cc(N(C(=O)[C@@H]2CCC(=O)N2c2cc(C#N)ccn2)C(C(=O)NC2CCC(F)(F)CC2)c2ccccc2Cl)c1 (stereo partly drawn) [Compound 105]", "pIC50": "> 7.00"}
{"COMPOUND": "CS(=O)(=O)c1cccc(N(C(=O)[C@@H]2CCC(=O)N2c2nccc(C#N)n2)C(C(=O)NC2CC(F)(F)C2)c2ccccc2Cl)c1 (mixture of isomers) [Compound 102]", "pIC50": "6.30 to 7.00"}
